# Test system: UO-31 renal
# protocol_text: NCI tumour cell line growth inhibition, 48 h
observed_property: TGI

Log: UO-31 renal, compound `O=C(O)c1ccc(NCc2nc3ccccc3[nH]2)cc1` , TGI = > 100 µM

Tested on UO-31 renal: C=CCOC1CC(n2cnc3c(N)ncnc32)OC1CO (stereo not given) . Observed TGI: > 100 µM

The compound O=C(CC(Cc1ccccc1)c1ccc(Oc2ccccc2)cc1)Nc1cccc(Cl)c1 (stereo not given) on UO-31 renal: TGI was > 100 µM

Assay UO-31 renal, sample `O=c1c2ccccc2nc2n1CCc1c-2[nH]c2cc3c(cc12)OCO3` , TGI read: > 25 µM

The reported TGI value, UO-31 renal, for `COc1cccc(N2C(=O)/C(=C/c3ccc(N(CCC#N)CCC#N)cc3)N=C2c2cc([N+](=O)[O-])ccc2Cl)c1` reads > 100 µM

`CN1C(=O)N/C(=C\c2ccc(S(=O)(=O)N/N=C/c3ccccc3)cc2)C1=O` on UO-31 renal gives TGI = > 100 µM

Bench note, UO-31 renal: entry COc1ccc(C2CC(c3ccccc3)=NN2C(=O)c2cc(OC)c(OC)c(OC)c2)cc1O (stereo not given) , its TGI = > 100 µM

Form field, TGI with UO-31 renal, item NC1=NCC(CN2CCCCC2)O1 (stereo not given) : > 100 µM

Measured TGI for this entry `O=c1ccn(Cc2ccccc2CCl)c(=O)[nH]1` on UO-31 renal: 77.3 µM

Let me check: `CCOc1cc(/C=N/c2nc3cc4sc(/N=C/c5ccc(O)c(OCC)c5)nc4cc3s2)ccc1O` , system UO-31 renal, measured TGI is > 100 µM

----------
Exercise: for every item that follows, state its recorded TGI.
# Tested on: SR leukemia
# protocol_text: NCI tumour cell line growth inhibition, 48 h

# TGI of `c1ccc(COCC[P+](c2ccccc2)(c2ccccc2)c2ccccc2)cc1` = 11 µM

For this compound ( `O=C1C(Cl)=C(Cl)C(=O)N1c1ccccc1Cl` ), measured TGI is 69.7 µM

Reported TGI ( `COc1ccc(/C=C2\C[C@H]3[C@@H]4CC=C5C[C@@H](OC(C)=O)CC[C@]5(C)[C@H]4CC[C@]3(C)C2=O)cc1OC` ) = > 100 µM

Lab note: `CCOC(=O)NC(=O)c1cn(CCCCCCCCCCC(=O)NCCCN2CCN(CCCNC(=O)CCCCCCCCCCn3cc(C(=O)NC(=O)OCC)c(=O)[nH]c3=O)CC2)c(=O)[nH]c1=O` gave TGI of > 100 µM

----------
Assign TGI to each entry below.
# System: SF-295 CNS
# protocol_text: NCI tumour cell line growth inhibition, 48 h

The measured TGI associated with `O=C(CCC(=O)Nc1ccc(Cl)cc1)CC(=O)c1ccc2ccccc2c1` reads > 100 µM

Briefly, TGI measured for `CC[O-].CC[O-].COc1ccc(C(=O)[CH-]C(C)=O)cc1OC.COc1ccc(C(=O)[CH-]C(C)=O)cc1OC.[Ti+4]` : > 100 µM

Measured TGI, COc1ccc(N=C(CS(=O)c2ccc(C)cc2)C(F)(F)F)cc1 (configuration not stated) : > 100 µM

The value of TGI measured for the compound `O=C(NCCCl)NCCN1c2nc3ccccc3cc2Sc2cc3ccccc3nc21` turned out to be 3.75 µM

Kindly note the recorded TGI for `O=C(Nc1ccccc1)n1cc(-c2ccccn2)c(N2CCOCC2)n1` , which is 28.2 µM

Form: compound = `Cc1cc(N(CCC#N)CCC#N)ccc1/C=C1N=C(/C=C/c2ccccc2)N(c2ccc(S(N)(=O)=O)cc2)C\1=O` ; TGI = > 100 µM

// TGI value for `O=c1c2ccccc2nc2n1CCc1c-2[nH]c2cc3c(cc12)OCO3` : > 25 µM

----------
# Test system: NCI-H23 lung
# protocol_text: NCI tumour cell line growth inhibition, 48 h
I'd be grateful if you could share measured GI50 for these entries.

# compound `CCC(CC)c1cc(N[C@H]2CC[C@H](N)C2)n2nccc2n1` ; its GI50 = 2.2 µM

The value of GI50 measured for the compound `Cc1cncc(-c2nc(NCCc3c[nH]c4ccccc34)c3ncn(C(C)C)c3n2)c1` turned out to be 5.34 µM

GI50 for `Cc1cc(O[C@@H]2O[C@@H](C)[C@H](O)[C@@H](O)[C@H]2O)c2c3c(c(O[C@@H]4O[C@@H](C)[C@H](O)[C@@H](O)[C@H]4O)cc2c1)C(=O)c1c(O)cccc1C3=O` is > 30 µM

The compound `O=C(COc1cccc(/C=C2\COc3ccccc3C2=O)c1)c1ccccc1` showed GI50 equal to 4.47 µM

get_value(item= Nc1nc(=S)c2ncn(C3OC(CO)C(O)C3O)c2[nH]1 (stereo not given) , readout=GI50) returns 0.776 µM

Record `CCCCOC(=O)/C=C\C(=O)NC(N)=O` . Reported GI50: 25.1 µM

Please fill in: GI50 reported for `Fc1ccc(Nc2ncc(-c3cc(F)c(Cl)cc3Cl)s2)cc1Cl` = 14.1 µM

Note to self: GI50 recorded for `[N-]=[N+]=NCCCn1c2c(c3ccc([N+](=O)[O-])cc3c1=O)C(=O)c1cc(I)ccc1-2` was 5.41 µM

# GI50 (compound: `Cc1ccc(/C=C(/C#N)n2nnc3ncccc32)cc1` ) is 3.09 µM

GI50 measured on Clc1ccc(C2CC(c3cccc(Nc4ccncc4)c3)=NN2c2ccccc2)cc1 (stereo not given) = 1.92 µM

----------
# Test system: SK-MEL-28 melanoma
# protocol_text: NCI tumour cell line growth inhibition, 48 h; in the data active = GI50 below about 0.43 µM; inactive = the rest
The reply should be one of these categories: active, inactive

How was `NC(=O)c1cc(I)ccc1NC(=O)/C=C/c1ccccc1Cl` classified in this test?
active

Which outcome was assigned to `COc1cc(-c2cc(-c3cccs3)c(C#N)c(N3CCOCC3)n2)cc(OC)c1OC` in this test?
inactive

Status in this test for `Cc1cc2c(C(=O)NCC#N)cccc2n1-c1nc2c(c(NCc3ccccc3)n1)CCCC2` ?
active

----------
Provide the recorded TGI for the entries that follow.
# System: IGROV1 ovarian
# protocol_text: NCI tumour cell line growth inhibition, 48 h

Short answer for `O=C(Nc1ccccc1)n1cc(-c2ccccn2)c(N2CCOCC2)n1` : TGI was > 100 µM

Looking up OC(c1ccccc1)C1CC2C=CC1C2 (stereo unspecified) , I found its TGI recorded as > 100 µM

TGI reading for `Cc1ccccc1C=NC12CC3CC(CC(C3)C1)C2` : > 100 µM

Record summary for `COc1ccc(CN2C(=O)/C(=C\C(=O)c3ccc(OCCN4CCCC4)cc3)c3ccccc32)cc1` : reported TGI = 3.78 µM

Recorded TGI (compound `Cc1occc1C(=S)Nc1ccc(Cl)c(C(=O)OCC(C)C)c1` ): 34.5 µM

Looking up `COc1ccc(C(OC(=O)[C@H](O[Si](C)(C)C(C)(C)C)[C@@H](NC(=O)c2ccccc2)c2ccccc2)c2ccc(OC)cc2)cc1` , I found its TGI recorded as > 100 µM

For record CC(=O)OC1CC2C(C)(C)CCC[C@]2(C)C2=C1C(O)=C(C(C)C)C(=O)C2=O (stereo partly specified) the listed TGI is 5.52 µM

# compound `O=c1c2cccc(F)c2sc2c(NCCCNCCO)nc3ccccc3c12` ; its TGI = 2.65 µM

// N#CC(NNC(=O)c1c(Cl)c(Cl)c(Cl)c(Cl)c1-c1nc2ccc(C(=O)c3ccccc3)cc2[nH]1)c1ccccc1 (stereo unspecified) : TGI value = > 100 µM

Lab note: measured TGI of `O=C(CCc1ccc(O)c(O)c1)NCCc1ccccc1` was > 100 µM

Input `CC(=O)Nc1c2sscc-2n(C)c1=O` . Output TGI: 4.65 µM

What the record says about Cc1nn(C(=O)c2ccc(Cl)cc2)c2c1C(c1ccccc1O)SC(N)=N2 (stereo unspecified) : TGI is > 10 µM

Looking up NC1=NCC(CN2CCCCC2)O1 (stereo unspecified) , I see its TGI listed as > 100 µM

Per the records, this compound ( `Clc1ccc(-c2nc3c(-c4ccccc4)nc(-c4ccccc4)cn3c2-c2ccc(Cl)cc2)cc1` ) has TGI equal to > 100 µM

The compound identified as `CCOC(CN(C)C(=O)Nc1ccc(Cl)c(Cl)c1)OCC` registered its TGI at > 10 µM

// sample `O=c1sc(Nc2ccc3ccccc3c2Cl)nc2ccccc12` , its TGI was > 100 µM

Quick note, TGI for `O=C1C(Cl)=C(N2CCN(CCOCCO)CC2)C(=O)c2ccccc21` landed at 28.6 µM

// sample Clc1ccc(C2CC(c3cccc(Nc4ccncc4)c3)=NN2c2ccccc2)cc1 (stereo unspecified) , its TGI was 3.04 µM

Item: `CS(=O)(=O)c1ccc2c(c1)C(=O)c1c-2n(CCCBr)c(=O)c2cc([N+](=O)[O-])ccc12` | TGI: > 100 µM

// CCN(CC)CCCC(C)Nc1c2ccc(Cl)cc2nc2cc(Cl)ccc12 (stereo unspecified) : TGI value = 19.5 µM

// recorded TGI for `N.N.N.N.N.N#Cc1nn[n-]n1.[Cl-].[Co+3]` : > 100 µM
